# Kd values compiled below
# TARGET OR SYSTEM: T1, biotinylated A93D-PNT domain (ETV6 residues 43-135, A93D, with Avitag) (human, UniProt P41212 43-135, A93D, biotin on the Avitag (~50 to 95% biotinylated))
# T1 construct: ETV6, human, residues 43-135; made from the V112E construct by introducing A93D and E112V; also called biotinylated A93D-PNT domain ligand; A93D-PNT domain ligand; source: E. coli BL21 (λDE3) co-transformed with pET21a-BirA, purified (Ni-NTA, thrombin cleavage); not shown: His6, N-terminal, cleaved; Avitag, N-terminal, kept
# T1 sequence (looked up): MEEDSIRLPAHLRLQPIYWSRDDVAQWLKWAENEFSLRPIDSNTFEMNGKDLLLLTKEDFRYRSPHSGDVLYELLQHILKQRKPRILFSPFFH
# ASSAY REMARKS: SPR; biotinylated A93D-PNT domain ligand captured on streptavidin Sensor Chip SA, PNT domain analytes flowed; Biacore X100, 25 °C, HBS-EP+ (10 mM HEPES, 150 mM NaCl, 3 mM EDTA, 0.05% v/v Tween-20, pH 7.4); analyte 0.2-60 nM, re-run at 20-6000 nM if KD > 60 nM
# TEST CONDITIONS: both partners purified
Unit nM implied. Number only.

Completed entries (count: 10):
[[record]]
binder = "L96A-V112E-PNT domain (domain or fragment, human, UniProt P41212 40-125, looked up, ETV6 PNT domain, human; source: E. coli BL21 (λDE3), purified (Ni-NTA, thrombin cleavage); not shown: His6, N-terminal, cleaved) ALRMEEDSIRLPAHLRLQPIYWSRDDVAQWLKWAENEFSLRPIDSNTFEMNGKALLALTKEDFRYRSPHSGDELYELLQHILKQRK"
measured_attribute = "Kd"
observed_result = 1000

[[record]]
binder = "T98A-V112E-PNT domain (domain or fragment, human, UniProt P41212 40-125, looked up, ETV6 PNT domain, human; source: E. coli BL21 (λDE3), purified (Ni-NTA, thrombin cleavage); not shown: His6, N-terminal, cleaved) ALRMEEDSIRLPAHLRLQPIYWSRDDVAQWLKWAENEFSLRPIDSNTFEMNGKALLLLAKEDFRYRSPHSGDELYELLQHILKQRK"
measured_attribute = "Kd"
observed_result = 8.8

[[record]]
binder = "N85A-V112E-PNT domain (domain or fragment, human, UniProt P41212 40-125, looked up, ETV6 PNT domain, human; source: E. coli BL21 (λDE3), purified (Ni-NTA, thrombin cleavage); not shown: His6, N-terminal, cleaved) ALRMEEDSIRLPAHLRLQPIYWSRDDVAQWLKWAENEFSLRPIDSATFEMNGKALLLLTKEDFRYRSPHSGDELYELLQHILKQRK"
measured_attribute = "Kd"
observed_result = 9.9

[[record]]
binder = "L97A-V112E-PNT domain (domain or fragment, human, UniProt P41212 40-125, looked up, ETV6 PNT domain, human; source: E. coli BL21 (λDE3), purified (Ni-NTA, thrombin cleavage); not shown: His6, N-terminal, cleaved) ALRMEEDSIRLPAHLRLQPIYWSRDDVAQWLKWAENEFSLRPIDSNTFEMNGKALLLATKEDFRYRSPHSGDELYELLQHILKQRK"
measured_attribute = "Kd"
observed_result = 700

[[record]]
binder = "R105A-V112E-PNT domain (domain or fragment, human, UniProt P41212 40-125, looked up, ETV6 PNT domain, human; source: E. coli BL21 (λDE3), purified (Ni-NTA, thrombin cleavage); not shown: His6, N-terminal, cleaved) ALRMEEDSIRLPAHLRLQPIYWSRDDVAQWLKWAENEFSLRPIDSNTFEMNGKALLLLTKEDFRYASPHSGDELYELLQHILKQRK"
measured_attribute = "Kd"
observed_result = 2340

[[record]]
binder = "E100A-V112E-PNT domain (domain or fragment, human, UniProt P41212 40-125, looked up, ETV6 PNT domain, human; source: E. coli BL21 (λDE3), purified (Ni-NTA, thrombin cleavage); not shown: His6, N-terminal, cleaved) ALRMEEDSIRLPAHLRLQPIYWSRDDVAQWLKWAENEFSLRPIDSNTFEMNGKALLLLTKADFRYRSPHSGDELYELLQHILKQRK"
measured_attribute = "Kd"
observed_result = 7

[[record]]
binder = "D101A-V112E-PNT domain (domain or fragment, human, UniProt P41212 40-125, looked up, ETV6 PNT domain, human; source: E. coli BL21 (λDE3), purified (Ni-NTA, thrombin cleavage); not shown: His6, N-terminal, cleaved) ALRMEEDSIRLPAHLRLQPIYWSRDDVAQWLKWAENEFSLRPIDSNTFEMNGKALLLLTKEAFRYRSPHSGDELYELLQHILKQRK"
measured_attribute = "Kd"
observed_result = 400

[[record]]
binder = "N90A-V112E-PNT domain (domain or fragment, human, UniProt P41212 40-125, looked up, ETV6 PNT domain, human; gene purchased commercially (Biomatik); source: E. coli BL21 (λDE3), purified (Ni-NTA, thrombin cleavage); not shown: His6, N-terminal, cleaved) ALRMEEDSIRLPAHLRLQPIYWSRDDVAQWLKWAENEFSLRPIDSNTFEMAGKALLLLTKEDFRYRSPHSGDELYELLQHILKQRK"
measured_attribute = "Kd"
observed_result = 480

[[record]]
binder = "E88A-V112E-PNT domain (domain or fragment, human, UniProt P41212 40-125, looked up, ETV6 PNT domain, human; source: E. coli BL21 (λDE3), purified (Ni-NTA, thrombin cleavage); not shown: His6, N-terminal, cleaved) ALRMEEDSIRLPAHLRLQPIYWSRDDVAQWLKWAENEFSLRPIDSNTFAMNGKALLLLTKEDFRYRSPHSGDELYELLQHILKQRK"
measured_attribute = "Kd"
observed_result = 8.1

[[record]]
binder = "V112E-PNT domain (ETV6 residues 40-125 with the V112E mutation) (domain or fragment, human, UniProt P41212 40-125, looked up, ETV6 PNT domain fragment, human, residues 40-125; expressed as residues 1-125 and cut by thrombin at the internal site V37-P38-R39/A40; 15N- or 13C/15N-labelled or unlabelled in NMR; also called V112E-PNT domain analyte; source: E. coli BL21 (λDE3), purified (Ni-NTA, thrombin cleavage, Superdex S75; size exclusion omitted for SPR); not shown: His6, N-terminal, cleaved) ALRMEEDSIRLPAHLRLQPIYWSRDDVAQWLKWAENEFSLRPIDSNTFEMNGKALLLLTKEDFRYRSPHSGDELYELLQHILKQRK"
measured_attribute = "Kd"
observed_result = 5.1


Next:
Request: What Kd value was documented for this binder, R63A-V112E-PNT domain (domain or fragment, human, UniProt P41212 40-125, looked up, ETV6 PNT domain, human; source: E. coli BL21 (λDE3), purified (Ni-NTA, thrombin cleavage); not shown: His6, N-terminal, cleaved) ALRMEEDSIRLPAHLRLQPIYWSADDVAQWLKWAENEFSLRPIDSNTFEMNGKALLLLTKEDFRYRSPHSGDELYELLQHILKQRK ?
Result: 15
